B1: PHTF1 (parent)
chain: SRHLNSQVKKTTTRWCHIVRDSDS

Variants of: B1
Assay: protein stability index of a GFP-peptide fusion (GPS, HEK-293T) (PSI 1-6); higher = more stable;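 also: lentivirally expressed fusions sorted by FACS into six bins by GFP to DsRed ratio, PSI derived from sequencing read proportions per bin multiplied by bin number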
Conditions: c terminus: a fixed tail appended
result-type: protein stability index
When you answer, write just the number.

Specify measured protein stability index for S1R .
2.51

Provide one value: measured protein stability index of T12M
1.76

Supply protein stability index value. Item: T13D
2.76

Quote protein stability index reported for D23R please.
2.8

Please indicate protein stability index recorded for H17K
2.59

Give recorded protein stability index. W15C
2.74

Note down protein stability index recorded for L4R
1.95

Specify reported protein stability index for the variant shown: K9Q
2.02

Specify reported protein stability index for the variant shown: L4N
2.05

Answer with the recorded protein stability index of R14T only.
1.71

Hello, please tell me recorded protein stability index for this one: S1A
2.52

# return recorded protein stability index for entry T12W
2.36

Return protein stability index for the following variant: I18H
2.52

// fetch protein stability index given entry T12E
2.68

Given V8M , respond with its protein stability index.
2.08

Identify the reported protein stability index for the following entry. W15G
3.24

// Input: K10A . Output its protein stability index only.
2.76

Please give the documented protein stability index of W15K
3.78

Look up protein stability index of R2I and report it.
2.2
